Listed next: entries and their corresponding inhibition at 0.1 µM.
- measurementTarget: rat adrenergic α1B receptor obtained from Wistar Rat liver (Rattus norvegicus, UniProt P15823)
- Construct: rat adrenergic α1B receptor obtained from Wistar Rat liver; from tissue; host or cells: Wistar rat liver
- Sequence (P15823 whole entry): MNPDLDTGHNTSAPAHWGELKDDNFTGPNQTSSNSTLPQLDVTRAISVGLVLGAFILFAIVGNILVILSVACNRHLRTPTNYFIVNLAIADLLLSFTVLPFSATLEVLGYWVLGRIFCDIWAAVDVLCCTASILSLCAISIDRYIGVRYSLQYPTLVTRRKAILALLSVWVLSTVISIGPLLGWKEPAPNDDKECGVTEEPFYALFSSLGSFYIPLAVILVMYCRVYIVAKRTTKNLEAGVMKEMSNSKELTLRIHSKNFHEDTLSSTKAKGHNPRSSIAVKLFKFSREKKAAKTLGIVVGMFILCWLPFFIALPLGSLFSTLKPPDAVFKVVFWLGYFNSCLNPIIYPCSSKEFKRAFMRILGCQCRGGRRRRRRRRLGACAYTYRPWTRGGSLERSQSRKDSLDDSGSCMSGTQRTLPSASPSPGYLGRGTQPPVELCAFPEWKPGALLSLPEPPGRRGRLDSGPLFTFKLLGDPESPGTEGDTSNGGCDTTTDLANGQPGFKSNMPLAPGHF
- assayOverview: Adrenergic α1B radioligand binding assay ([3H]Prazosin)
- conditionInfo: 0.1 μM compound; read-out: Percentage inhibition of ligand binding, Adrenergic α1B
Report only the number, with the unit % understood.

Please review the following examples before continuing.
Cc1cc(C#Cc2ccc(C)nc2)c2c(c1)c1c(n2C)CCN(C)C1: 2
Cc1cc(C#Cc2ccncc2)c2c(c1)c1c(n2C)CCN(C)C1: 9
C/C(=C\c1cc(C)cc2c3c(n(C)c12)CCN(C)C3)c1ccc(C)nc1: 0
Cc1cc2c3c(c1)c1c(n3CC(C)(c3ccncc3)OC(C)C2)CCN(C)C1 (stereo not drawn): 0
Cc1ccc2c(c1)c1c3n2C(c2ccccc2)CCC3(C)CN(C)C1 (stereo not drawn): 10

Now take the following compound into account.
In one line, give reported inhibition at 0.1 µM of the entry Cc1ccc2c(c1)c1c3n2CC(c2ccncc2)=CCC3(C)CN(C)C1 (stereo not drawn) .
16

====

- measurementTarget: human recombinant adrenergic α2A receptor (Homo sapiens, UniProt P08913)
- Construct: expressed in transfected cells; host or cells: insect Sf9 cells
- Sequence (P08913 whole entry): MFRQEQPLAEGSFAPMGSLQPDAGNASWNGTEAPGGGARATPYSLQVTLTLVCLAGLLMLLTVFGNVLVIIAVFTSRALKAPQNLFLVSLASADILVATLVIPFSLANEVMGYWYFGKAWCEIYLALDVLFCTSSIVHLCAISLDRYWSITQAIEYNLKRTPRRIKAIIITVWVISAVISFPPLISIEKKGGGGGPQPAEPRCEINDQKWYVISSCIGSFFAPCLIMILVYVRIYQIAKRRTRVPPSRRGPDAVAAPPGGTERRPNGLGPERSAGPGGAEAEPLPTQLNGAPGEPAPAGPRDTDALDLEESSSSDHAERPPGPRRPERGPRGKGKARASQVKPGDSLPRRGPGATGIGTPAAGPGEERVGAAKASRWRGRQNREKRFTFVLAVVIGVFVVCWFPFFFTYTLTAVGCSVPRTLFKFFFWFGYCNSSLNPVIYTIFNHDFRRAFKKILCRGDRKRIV
- assayOverview: Adrenergic α2A radioligand binding assay ([3H]MK-912)
- conditionInfo: 0.1 μM compound; read-out: Percentage inhibition of ligand binding, Adrenergic α2A
valueKind: inhibition at 0.1 µM (%)
Answer format: numeric, % implied, no suffix.

Here's what some known entries look like.
Cc1cc2c3c(c1)c1c(n3C[C@@](C)(c3ccncc3)O[C@H]2C)CCN(C)C1: 14
Cc1cc(/C=C/c2ccc(C)nc2)c2c(c1)c1c(n2C)CCN(C)C1: 12
Cc1cc(C#Cc2cccs2)c2[nH]c3c(c2c1)CN(C)CC3: 20
Cc1cc2c3c(c1)c1c(n3C[C@](C)(c3ccncc3)O[C@H]2C)CCN(C)C1: 5
Cc1ccc2c(c1)c1c3n2C(c2ccccc2)=CCC3(C)CN(C)C1 (stereo not shown): -1

Answer with the recorded inhibition at 0.1 µM for the compound listed here: Cc1cc(CC(O)c2ccncc2)c2c(c1)c1c(n2C)CCN(C)C1 (stereo not shown)
-5

====

- measurementTarget: human recombinant adrenergic α1D receptor (Homo sapiens, UniProt P25100)
- Construct: expressed in transfected cells; host or cells: HEK-293 cells
- Sequence (P25100 1-572): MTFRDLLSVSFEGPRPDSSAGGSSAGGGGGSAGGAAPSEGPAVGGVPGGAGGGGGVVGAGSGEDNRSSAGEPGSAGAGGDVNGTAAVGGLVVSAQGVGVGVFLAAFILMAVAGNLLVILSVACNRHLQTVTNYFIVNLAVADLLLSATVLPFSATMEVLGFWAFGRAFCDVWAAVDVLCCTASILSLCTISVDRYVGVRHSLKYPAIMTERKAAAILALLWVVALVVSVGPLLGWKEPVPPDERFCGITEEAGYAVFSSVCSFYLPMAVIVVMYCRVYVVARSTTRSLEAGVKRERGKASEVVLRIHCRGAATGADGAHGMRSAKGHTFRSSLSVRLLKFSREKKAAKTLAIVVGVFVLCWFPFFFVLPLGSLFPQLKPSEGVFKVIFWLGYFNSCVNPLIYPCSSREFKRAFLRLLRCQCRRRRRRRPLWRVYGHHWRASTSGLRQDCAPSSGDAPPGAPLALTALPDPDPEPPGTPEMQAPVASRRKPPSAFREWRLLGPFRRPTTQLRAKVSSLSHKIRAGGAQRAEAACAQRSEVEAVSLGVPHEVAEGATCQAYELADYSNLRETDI
- assayOverview: Adrenergic α1D radioligand binding assay ([3H]Prazosin)
- conditionInfo: 0.1 μM compound; read-out: Percentage inhibition of ligand binding, Adrenergic α1D
Each item that follows carries a reported inhibition at 0.1 µM.
Note: unit % is implicit; provide only the numeric part.

Sample records with inhibition at 0.1 µM:
Cc1ccc2c(c1)c1c3n2C(c2ccccc2)=CCC3(C)CN(C)C1 (stereo not drawn): -6
Cc1cc(C#Cc2ccc(C)nc2)c2c(c1)c1c(n2C)CCN(C)C1: 38
Cc1cc(-c2ccc(F)cc2)c2c(c1)c1c(n2C)CCN(C)C1: 4
Cc1cc2c3c(c1)c1c(n3CC(C)(c3ccncc3)OC(C)C2)CCN(C)C1 (stereo not drawn): 0
Cc1cc(-c2ccncc2)c2c(c1)c1c(n2C)CCN(C)C1: -1

Return the recorded inhibition at 0.1 µM value; entry: Cc1cc2c3c(c1)c1c(n3C(c3ccccc3)C2)CCN(C)C1 (stereo not drawn)
28

Give the reported inhibition at 0.1 µM for this compound. `C#Cc1cc(C)cc2c3c(n(C)c12)CCN(C)C3`
26
